Test system: SK-MEL-1 (Melanoma)
Test: Bliss excess, mean over the matrix (fraction); higher = more synergy
Measured Bliss excess, listed per entry.
Kindly provide the number alone.

Examples from the recorded data:
C[C@@H]1COCCN1c1cc(C2([S@](C)(=N)=O)CC2)nc(-c2ccnc3[nH]ccc23)n1 [AZD6738] + C1CC(C1)(C(=O)[O-])C(=O)[O-].N.N.[Pt+2] [Carboplatin] (first compound max 10 µM, 7x7, partner max 10 µM) ... -0.048
Cc1c2c(nn1C)CSCc1cc(n(C)n1)CSc1cc(c3ccccc3c1)OCCCc1c(C(=O)O)n(C)c3c-2c(Cl)ccc13 [AZD5991] + CCN(CCO)CCCOc1ccc2c(Nc3cc(CC(=O)Nc4cccc(F)c4)[nH]n3)ncnc2c1 [AZD2811] (first compound max 1 µM, 7x7, partner max 1 µM) ... -0.0194
Cn1cnc2c(F)c(Nc3ccc(Br)cc3Cl)c(C(=O)NOCCO)cc21 [Selumetinib] + C=CCn1c(=O)c2cnc(Nc3ccc(N4CCN(C)CC4)cc3)nc2n1-c1cccc(C(C)(C)O)n1 [AZD1775] (first compound max 10 µM, partner max 1 µM) ... 0.0121

Moving on to another molecule below.
For this molecule ( C[C@@H]1COCCN1c1cc(C2([S@](C)(=N)=O)CC2)nc(-c2ccnc3[nH]ccc23)n1 [AZD6738] + Nc1ccn([C@@H]2O[C@H](CO)[C@@H](O)C2(F)F)c(=O)n1 [Gemcitabine] (first compound max 10 µM, 7x7, partner max 0.3 µM) ), measured Bliss excess is 0.0174

###

System: H4 (Low Grade Glioma)
Test: Bliss excess, mean over the matrix (fraction); higher = more synergy
compounds and their reported Bliss excess
Give the figure only, with no unit attached.

Use these answered entries as a reference point.
Cc1cc2ncnn2cc1Nc1ncc2c(n1)n(C1CCOCC1)c(=O)n2C [AZD7648] + CN(C)CCCOc1ccc(-c2ccc3ncc4c(c3c2)n(C2CCOCC2)c(=O)n4C)cn1 [AZD0156] (first compound max 10 µM, 7x7, partner max 1 µM) ... -0.0253
NC1(C(=O)N[C@@H](CCO)c2ccc(Cl)cc2)CCN(c2ncnc3[nH]ccc23)CC1 [Capivasertib] + C[C@@H]1COCCN1C2=NC(=NC(=C2)C3(CC3)[S@](=N)(=O)C)C4=C5C=CNC5=NC=C4 [AZD6738] (first compound max 10 µM, 7x7, partner max 10 µM) ... -0.0667
Cc1nc(-c2cn3c(n2)-c2ccc(-c4cnn(C(C)(C)C(N)=O)c4)cc2OCC3)n(C(C)C)n1 [Taselisib] + O=C(Nc1ccc2[nH]nc(-c3ccncc3)c2c1)[C@@H]1CCN(CC(=O)N2CCN(c3ccc(-c4ncccn4)cc3)CC2)C1 [SCH772984] (first compound max 10 µM, 7x7, partner max 5 µM) ... -0.0007

Please find the next compound below.
Cc1c2c(nn1C)CSCc1cc(n(C)n1)CSc1cc(c3ccccc3c1)OCCCc1c(C(=O)O)n(C)c3c-2c(Cl)ccc13 [AZD5991] + CCN(CCO)CCCOc1ccc2c(Nc3cc(CC(=O)Nc4cccc(F)c4)[nH]n3)ncnc2c1 [AZD2811] (first compound max 1 µM, 7x7, partner max 1 µM) has a reported Bliss excess of 0.0207

###

System: HOP-92 (Non-Small Cell Lung Carcinoma)
Test: combination Emax (second highest fraction inhibited in the dose matrix, 72 h); higher = more inhibition; extreme values may be limits of the assay
Experimental Readout: combination Emax
Enter a number only.

C[C@@H]1COCCN1c1cc(C2([S@](C)(=N)=O)CC2)nc(-c2ccnc3[nH]ccc23)n1 [AZD6738] + O=C(c1cc(Cc2n[nH]c(=O)c3ccccc23)ccc1F)N1CCN(C(=O)C2CC2)CC1 [Olaparib] (first compound max 10 µM, 7x7, partner max 10 µM) ... 0.667
CN(C)CCCOc1ccc(-c2ccc3ncc4c(c3c2)n(C2CCOCC2)c(=O)n4C)cn1 [AZD0156] + C[C@@H]1COCCN1C2=NC(=NC(=C2)C3(CC3)[S@](=N)(=O)C)C4=C5C=CNC5=NC=C4 [AZD6738] (first compound max 1 µM, 7x7, partner max 10 µM) ... 0.665
Cc1c2c(nn1C)CSCc1cc(n(C)n1)CSc1cc(c3ccccc3c1)OCCCc1c(C(=O)O)n(C)c3c-2c(Cl)ccc13 [AZD5991] + C1CN(CCC1(C(=O)N[C@@H](CCO)C2=CC=C(C=C2)Cl)N)C3=NC=NC4=C3C=CN4 [Capivasertib] (first compound max 1 µM, 7x7, partner max 3 µM) ... 0.402
CCN(CCO)CCCOc1ccc2c(Nc3cc(CC(=O)Nc4cccc(F)c4)[nH]n3)ncnc2c1 [AZD2811] + O=C(c1cc(Cc2n[nH]c(=O)c3ccccc23)ccc1F)N1CCN(C(=O)C2CC2)CC1 [Olaparib] (first compound max 1 µM, 7x7, partner max 10 µM) ... 0.363
CN(CCO)CC[C@H](CSc1ccccc1)Nc1ccc(S(=O)(=O)NC(=O)c2ccc(N3CCC([C@@H](O)c4ccccc4-c4ccc(Cl)cc4)CC3)cc2)cc1S(=O)(=O)C(F)(F)F [AZD4320] + C[C@@H](Nc1cc(F)cc(F)c1)c1cc(C(=O)N(C)C)cc2c(=O)cc(N3CCOCC3)oc12 [AZD8186] (first compound max 1 µM, 7x7, partner max 3 µM) ... 0.967
Cc1c2c(nn1C)CSCc1cc(n(C)n1)CSc1cc(c3ccccc3c1)OCCCc1c(C(=O)O)n(C)c3c-2c(Cl)ccc13 [AZD5991] + C[C@@H]1COCCN1C2=NC(=NC(=C2)C3(CC3)[S@](=N)(=O)C)C4=C5C=CNC5=NC=C4 [AZD6738] (first compound max 1 µM, 7x7, partner max 10 µM) ... 0.723

combination Emax reported for this compound NC1(C(=O)N[C@@H](CCO)c2ccc(Cl)cc2)CCN(c2ncnc3[nH]ccc23)CC1 [Capivasertib] + Cn1cnc2c(F)c(Nc3ccc(Br)cc3Cl)c(C(=O)NOCCO)cc21 [Selumetinib] (first compound max 10 µM, 7x7, partner max 10 µM) : 0.685
